Hey, just so you know, these numbers are from patent US8802720B2.

measured-on: human Edg-2 receptor (LPA1 receptor) (Homo sapiens)
Sequence (Q92633 whole entry): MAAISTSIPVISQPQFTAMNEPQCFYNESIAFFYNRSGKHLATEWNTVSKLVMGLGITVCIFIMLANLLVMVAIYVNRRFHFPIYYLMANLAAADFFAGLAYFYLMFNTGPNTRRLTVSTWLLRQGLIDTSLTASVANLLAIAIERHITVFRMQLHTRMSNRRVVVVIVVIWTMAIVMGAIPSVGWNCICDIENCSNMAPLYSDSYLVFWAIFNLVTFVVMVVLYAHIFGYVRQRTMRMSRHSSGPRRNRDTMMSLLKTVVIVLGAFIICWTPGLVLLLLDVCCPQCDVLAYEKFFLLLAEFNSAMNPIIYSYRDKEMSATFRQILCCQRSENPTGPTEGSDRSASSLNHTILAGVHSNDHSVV
experiment-notes: Edg-2 receptor inhibition by FLIPR calcium fluorescence measurement (LPA-mediated calcium liberation)
details: CHO cells stably overexpressing human Edg-2 receptor; LPA 18:1 100 nM; fluo-4 fluorescence; triplicate; read-out: Inhibitory concentrations IC50 for inhibition of the Edg-2 receptor
pIC50: −log10 of the molar value.
The following molecules are shown together with reported pIC50 values.

{"columns": ["molecule", "pIC50"],
 "data": [
  ["Cc1ccc(F)c(CCOc2cc(C(=O)NC3(C(=O)O)Cc4ccccc4C3)ccc2C(F)(F)F)c1 [Example 192]", "> 7.00"],
  ["COc1ccc(C(=O)NC2(C(=O)O)Cc3ccccc3C2)cc1SCCc1cccc(C)c1 [Example 180]", "> 7.00"],
  ["COc1ncc(C(=O)NC2(C(=O)O)Cc3ccccc3C2)cc1-c1cc(F)c(F)c(F)c1 [Example 229]", "> 7.00"],
  ["COc1ccc(CCOc2cc(C(=O)NC3(C(=O)O)Cc4ccccc4C3)ccc2OC)cc1 [Example 137]", "4.52 to 6.00"],
  ["COc1ccc(C(=O)NC2(C(=O)O)Cc3ccccc3C2)cc1-c1cccc(S(C)(=O)=O)c1 [Example 309]", "6.00 to 7.00"],
  ["CCS(=O)(=O)c1cccc(-c2cc(C(=O)NC3(C(=O)O)Cc4ccccc4C3)cc(F)c2OC)c1 [Example 357]", "> 7.00"]
]}

Given the entry C=CC1CN2CCC1CC2COc1cc(C(=O)NC2(C(=O)O)Cc3ccccc3C2)ccc1OC (centres unmarked) [Example 58] , what pIC50 was observed with human Edg-2 receptor (LPA1 receptor) (Homo sapiens)?
4.52 to 6.00

Given the entry COc1ncc(C(=O)NC2(C(=O)O)Cc3ccccc3C2)cc1OCCc1cccc(C)c1 [Example 208] , what pIC50 was observed with human Edg-2 receptor (LPA1 receptor) (Homo sapiens)?
> 7.00

* * *

measured-on: human Edg-2 receptor (LPA1 receptor) (Homo sapiens)
experiment-notes: Edg-2 receptor inhibition by FLIPR calcium fluorescence measurement (LPA-mediated calcium liberation)
details: CHO cells stably overexpressing human Edg-2 receptor; LPA 18:1 100 nM; fluo-4 fluorescence; triplicate; read-out: Inhibitory concentrations IC50 for inhibition of the Edg-2 receptor
measurement-label: IC50

Answered examples (5):
{"columns": ["compound", "measured-on", "IC50"],
 "data": [
  ["Cc1cccc(CCOc2cc(C(=O)NC3(C(=O)O)Cc4ccccc4C3)ccc2OCCOC(C)(C)C)c1 [Example 259]", "human Edg-2 receptor (LPA1 receptor) (Homo sapiens)", "< 100 nM"],
  ["COc1ccc(C(=O)NC2(C(=O)O)Cc3ccccc3C2)cc1OCCc1cccc(C(C)C)c1 [Example 25]", "human Edg-2 receptor (LPA1 receptor) (Homo sapiens)", "< 100 nM"],
  ["Cc1cccc(CCOc2cccc(C(=O)NC3(C(=O)O)Cc4ccccc4C3)c2)c1 [Example 141]", "human Edg-2 receptor (LPA1 receptor) (Homo sapiens)", "1000 to 30000 nM"],
  ["COc1ccc(C(=O)NC2(C(=O)O)Cc3c(F)ccc(F)c3C2)cc1OCCc1cccc(C)c1 [Example 214]", "human Edg-2 receptor (LPA1 receptor) (Homo sapiens)", "< 100 nM"],
  ["COc1ccc(C(=O)NC2(C(=O)O)Cc3ccccc3C2)cc1-c1cccc(Cl)c1C [Example 327]", "human Edg-2 receptor (LPA1 receptor) (Homo sapiens)", "< 100 nM"]
]}

I would be grateful if you could share the reported IC50 for Cc1cccc(CCOc2cc(C(=O)NC3(C(=O)O)Cc4ccccc4C3)ccc2S(C)(=O)=O)c1 [Example 6] .
1000 to 30000 nM

I would be grateful if you could share the reported IC50 for COc1ccc(C(=O)NC2(C(=O)O)Cc3ccccc3C2)cc1OCc1ncc(C)c(NC(C)=O)c1C [Example 77] .
1000 to 30000 nM

I would be grateful if you could share the reported IC50 for COc1ccc(C(=O)NC2(C(=O)O)Cc3ccccc3C2)cc1OCCc1cc(C)ccc1F [Example 20] .
< 100 nM
